# SUBJECT OF TEST: T1, dimeric human PRLR (hPRLR.mFc; SEQ ID NO:402) (Homo sapiens, UniProt P16471)
# T1 construct: dimeric (hPRLR.mFc)
# TEST SUMMARY: Surface plasmon resonance (Biacore T200), antibody-capture format
# Format: binding
# CONDITION INFO: 25° C., analyte hPRLR.mFc
Listed here: items and their measured kd.
API: value field is a number in s⁻¹; no unit string.

Examples with their reported kd follow.
MOLECULE	MEASUREMENT UNIT	kd
H1H6800P: fully human anti-PRLR antibody, human IgG1 Fc; HCVR/LCVR SEQ ID NOs 194/202 (antibody, V domains shown) VH: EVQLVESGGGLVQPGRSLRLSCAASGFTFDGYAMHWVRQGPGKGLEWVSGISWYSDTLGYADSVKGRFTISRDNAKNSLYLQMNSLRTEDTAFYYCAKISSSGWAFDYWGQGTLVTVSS VL: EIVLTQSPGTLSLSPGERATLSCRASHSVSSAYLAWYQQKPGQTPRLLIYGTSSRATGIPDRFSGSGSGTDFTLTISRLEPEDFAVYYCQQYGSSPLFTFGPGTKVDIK	s⁻¹	8.69e-05
H1H6762P: fully human anti-PRLR antibody, human IgG1 Fc; HCVR/LCVR SEQ ID NOs 2/10 (antibody, V domains shown) VH: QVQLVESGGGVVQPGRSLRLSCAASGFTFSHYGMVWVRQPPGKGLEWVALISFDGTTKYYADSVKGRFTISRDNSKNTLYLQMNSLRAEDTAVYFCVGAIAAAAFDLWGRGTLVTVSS VL: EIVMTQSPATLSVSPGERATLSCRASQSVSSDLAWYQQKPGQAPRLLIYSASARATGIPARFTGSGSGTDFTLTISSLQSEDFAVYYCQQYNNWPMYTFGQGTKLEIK	s⁻¹	6.45e-05
H1H6781P: fully human anti-PRLR antibody, human IgG1 Fc; HCVR/LCVR SEQ ID NOs 50/58 (antibody, V domains shown) VH: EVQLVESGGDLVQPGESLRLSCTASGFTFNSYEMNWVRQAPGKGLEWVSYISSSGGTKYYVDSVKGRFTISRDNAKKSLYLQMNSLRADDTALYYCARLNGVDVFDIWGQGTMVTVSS VL: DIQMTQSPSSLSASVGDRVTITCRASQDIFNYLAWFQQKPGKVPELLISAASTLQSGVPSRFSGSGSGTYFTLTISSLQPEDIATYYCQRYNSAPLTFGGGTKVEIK	s⁻¹	6.05e-05
H1H6804P: fully human anti-PRLR antibody, human IgG1 Fc; HCVR/LCVR SEQ ID NOs 242/250 (antibody, V domains shown) VH: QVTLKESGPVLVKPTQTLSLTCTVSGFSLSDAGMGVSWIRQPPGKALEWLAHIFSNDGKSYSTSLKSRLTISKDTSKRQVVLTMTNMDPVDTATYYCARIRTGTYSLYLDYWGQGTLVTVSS VL: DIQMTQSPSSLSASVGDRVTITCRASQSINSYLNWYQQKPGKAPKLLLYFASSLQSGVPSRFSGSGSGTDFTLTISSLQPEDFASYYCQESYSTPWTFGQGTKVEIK	s⁻¹	8.69e-05
H1H6958N2: anti-PRLR antibody, receptor blocking, human IgG1 Fc form of H2M6958N2 of Table 1; HCVR/LCVR SEQ ID NOs 290/298 (antibody, V domains shown) VH: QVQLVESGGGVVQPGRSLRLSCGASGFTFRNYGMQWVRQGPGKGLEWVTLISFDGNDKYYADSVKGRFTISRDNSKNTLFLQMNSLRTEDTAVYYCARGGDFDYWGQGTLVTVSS VL: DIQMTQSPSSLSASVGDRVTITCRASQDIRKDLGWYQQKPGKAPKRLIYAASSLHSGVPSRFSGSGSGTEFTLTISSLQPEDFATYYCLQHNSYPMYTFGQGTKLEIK	s⁻¹	3.66e-05
H1H6797P: fully human anti-PRLR antibody, human IgG1 Fc; HCVR/LCVR SEQ ID NOs 178/186 (antibody, V domains shown) VH: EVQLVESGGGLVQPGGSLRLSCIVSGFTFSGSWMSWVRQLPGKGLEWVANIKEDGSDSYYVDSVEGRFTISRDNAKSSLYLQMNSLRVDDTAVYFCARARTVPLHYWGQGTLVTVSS VL: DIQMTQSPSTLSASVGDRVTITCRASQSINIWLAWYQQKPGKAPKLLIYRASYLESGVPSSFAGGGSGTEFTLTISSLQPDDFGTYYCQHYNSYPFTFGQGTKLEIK	s⁻¹	0.000119
H1H6803P: fully human anti-PRLR antibody, human IgG1 Fc; HCVR/LCVR SEQ ID NOs 226/234 (antibody, V domains shown) VH: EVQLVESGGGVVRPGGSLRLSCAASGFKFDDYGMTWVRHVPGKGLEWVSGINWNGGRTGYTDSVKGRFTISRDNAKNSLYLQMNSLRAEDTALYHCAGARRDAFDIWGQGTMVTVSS VL: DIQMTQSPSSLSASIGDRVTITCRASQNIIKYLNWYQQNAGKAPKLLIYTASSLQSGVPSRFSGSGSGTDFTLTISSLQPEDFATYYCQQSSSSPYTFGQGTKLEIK	s⁻¹	6.29e-05

--- query ---
Suppose we examine the molecule H1H6782P: fully human anti-PRLR antibody, non-blocking; HCVR/LCVR SEQ ID NOs 66/74 (antibody, V domains shown) VH: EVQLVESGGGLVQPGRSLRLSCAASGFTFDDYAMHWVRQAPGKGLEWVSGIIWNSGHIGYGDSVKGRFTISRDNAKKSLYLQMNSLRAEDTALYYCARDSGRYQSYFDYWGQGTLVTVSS VL: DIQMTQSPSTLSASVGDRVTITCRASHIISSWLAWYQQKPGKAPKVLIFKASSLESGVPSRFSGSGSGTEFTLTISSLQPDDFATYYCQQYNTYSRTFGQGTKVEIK ; what kd value has been reported? 7.13e-05
